Each entry below carries its recorded melting point.
Where a name gives a salt, the structure may show the parent alone.

Examples with their reported melting point follow.
O=C1NC(=O)c2ccc(-c3ccsc3)cc2/C1=C/Nc1ccc(CN2CCCCC2)cc1 (hydrate or solvate) [Example 104]; 166 to 167 °C
COc1ccc(CN/C=C2\C(=O)NC(=O)c3ccc(-c4ccsc4)cc32)cc1O (as salt: hydrochloride) [Example 88]; 219 to 220 °C

Entry under review: O=C1NC(=O)c2ccc(Br)cc2/C1=C/c1cc(Br)c(O)c(Br)c1 [Example 94] . Reported melting point?
167 to 168 °C

And then COCC#Cc1ccc2c(c1)/C(=C/Nc1ccc(N3CCN(C)CC3)cc1)C(=O)NC2=O [Example 177] , what is it?
209 to 210 °C

And then CC(C)(C)OC(=O)N1CCN(Cc2ccc(N/C=C3\C(=O)NC(=O)c4ccccc43)cc2)CC1 [Example 34] , what is it?
219 to 220 °C

And then CC(=O)N1CCC(c2ccc(N/C=C3\C(=O)NC(=O)c4ccc(-c5ccoc5)cc43)cc2)CC1 [Example 351] , what is it?
178 to 179 °C

And then CN1CCN(c2cnc(N/C=C3\C(=O)NC(=O)c4ccc(-c5ccoc5)cc43)cn2)CC1 [Example 508] , what is it?
226 to 227 °C

====

# Tested System: cyclin E/CDK2 enzyme (Homo sapiens)
# Construct: made in house; host or cells: Sf9 insect cells, recombinant baculovirus
# Assay Notes: CDK2 ELISA kinase assay (phospho-Rb ser 795 detection)
# Type: biochemical
# Experimental Setup: In Vitro Enzyme Assays, read-out: CDK2 IC50
pIC50: −log10 of the molar value.
Assay Metric: pIC50

COc1ccc(-c2ccc3c(c2)/C(=C/Nc2ccc(CN4CCCC4C)cc2)C(=O)NC3=O)cc1 (centres unmarked); 4.36
Nc1cccc(CN/C=C2\C(=O)NC(=O)c3ccc(Br)cc32)c1; 5.35

1 = C/C=C(\C)C(=O)Nc1ccc(CN/C=C2\C(=O)NC(=O)c3ccc(I)cc32)cc1O
2 = COc1cc(CN/C=C2\C(=O)NC(=O)c3ccc(I)cc32)cc(O)c1OC
3 = CCCOc1cnc(CNC=C2C(=O)NC(=O)c3ccc(I)cc32)cc1O
I would appreciate it if you could sort these 3 compounds by pIC50, starting from the smallest number. // respond by listing labels in the order requested
1, 2, 3
(1: 5.24, 2: 5.48, 3: 5.80)

====

# Tested System: cyclin D1/cdk 4 enzyme (Homo sapiens)
# Construct: made in house; host or cells: Sf9 insect cells, recombinant baculovirus
# Sequence (P11802 whole entry, species assumed): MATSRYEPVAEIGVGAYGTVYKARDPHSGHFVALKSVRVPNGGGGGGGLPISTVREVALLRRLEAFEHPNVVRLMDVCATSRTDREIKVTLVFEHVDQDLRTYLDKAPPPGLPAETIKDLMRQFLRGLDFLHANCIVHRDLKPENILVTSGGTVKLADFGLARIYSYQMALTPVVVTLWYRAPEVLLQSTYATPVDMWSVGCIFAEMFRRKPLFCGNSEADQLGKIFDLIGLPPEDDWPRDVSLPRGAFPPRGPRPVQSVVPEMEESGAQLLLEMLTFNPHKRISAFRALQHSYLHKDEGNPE
# Sequence (P24385 whole entry partner, species assumed): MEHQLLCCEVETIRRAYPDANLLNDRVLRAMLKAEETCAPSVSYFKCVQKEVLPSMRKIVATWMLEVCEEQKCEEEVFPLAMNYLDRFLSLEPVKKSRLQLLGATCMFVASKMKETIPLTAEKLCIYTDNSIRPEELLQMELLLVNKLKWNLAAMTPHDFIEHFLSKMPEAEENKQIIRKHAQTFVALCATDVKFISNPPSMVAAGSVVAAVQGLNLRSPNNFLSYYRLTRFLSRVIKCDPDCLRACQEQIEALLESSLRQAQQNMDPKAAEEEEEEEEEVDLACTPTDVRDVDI
# Assay Notes: CDK4 ELISA kinase assay (phospho-Rb ser 795 detection)
# Assay type: biochemical
# Experimental Setup: In Vitro Enzyme Assay, cyclin D1/cdk 4, read-out: CDK4 IC50
pIC50: −log10 of the molar value.
Assay Metric: pIC50

Examples with their reported pIC50 follow.
O=C1NC(=O)c2ccc(-c3ccc(CO)cc3)cc2C1=CNc1ccc(CN2CCCC2)cc1 [Example 840]; 5.52
NS(=O)(=O)c1ccc(CNC=C2C(=O)NC(=O)c3ccc(C=Cc4ccccc4)cc32)cc1 [Example 654]; 5.70
O=C1NC(=O)c2ccccc2C1=CNc1cc(Cl)c([N+](=O)[O-])cc1O [Example 570]; 4.66
O=C1NC(=O)c2ccc(-c3ccc[nH]3)cc2C1=CNc1ccc(CN2CCCC2)cc1 [Example 838]; 6.82
O=C1NC(=O)c2ccccc2C1=CNC(Cc1ccc(O)c(O)c1)C(=O)O (centres unmarked) [Example 566]; 4.53
CCN1CCCC1c1ccc(N/C=C2\C(=O)NC(=O)c3ccc(-c4ccoc4)cc32)cc1 (centres unmarked) [Example 473]; 7.30
COc1ccc(-c2ccc3c(c2)C(=CNCc2ccc(OC)c(O)c2)C(=O)NC3=O)cc1 [Example 833]; 8.00
CN1CCN(c2ccc(NC=C3C(=O)NC(=O)c4ccc(-c5cccc(C#N)c5)cc43)cc2)CC1 [Example 695]; 4.84
CN1CCN(c2ccc(CN/C=C3\C(=O)NC(=O)c4ccc(I)cc43)cc2O)CC1 [Example 521]; 7.70
O=C1NC(=O)c2ccc(I)cc2/C1=C/NCc1ccc(-c2ccc(F)cc2)c(O)c1 [Example 500]; 6.85

A = CCN1CCCC1c1ccc(N/C=C2\C(=O)NC(=O)c3ccc(I)cc32)cc1 (centres unmarked) [Example 465]
B = O=C1NC(=O)c2ccccc2C1=CNc1ccc(O)cc1O [Example 568]
Between item A and item B , which reported pIC50 is smaller? Respond with the label that goes with your answer.
B

A = CCN(CC)CCn1ccc(-c2ccc3c(c2)C(=CNc2ccc(N4CCN(C)CC4)cc2)C(=O)NC3=O)c1 [Example 854]
B = CC(=O)Nc1cccc(CNC=C2C(=O)NC(=O)c3ccccc32)c1 [Example 585]
Between the two listed entries A and B , which has its pIC50 at the higher number? Respond with the label that goes with your answer.
A
(A: 6.21, B: 4.37)

I = COc1ccc(CNC=C2C(=O)NC(=O)c3ccc(-c4ccc5[nH]ccc5c4)cc32)cc1O [Example 835]
II = O=C1NC(=O)c2ccccc2C1=CNc1cccc(C(=O)O)c1 [Example 542]
III = CN1CCN(c2ccc(NC=C3C(=O)NC(=O)c4ccc(-c5ccccc5)cc43)cc2)CC1 [Example 831]
I would appreciate it if you could sort these 3 compounds by pIC50, starting from the smallest number. // respond by listing labels in the order requested
II, III, I

====

# Tested System: cyclin E/CDK2 enzyme (Homo sapiens, UniProt P24941)
# Construct: made in house; host or cells: Sf9 insect cells, recombinant baculovirus
# Assay Notes: CDK2 ELISA kinase assay (phospho-Rb ser 795 detection)
# Assay type: biochemical
# Experimental Setup: In Vitro Enzyme Assays, read-out: CDK2 IC50
Each entry below carries its recorded IC50.

CN1CCN(c2ccc(N/C=C3\C(=O)NC(=O)c4ccc(-c5ccc(C=O)o5)cc43)cc2)CC1; > 50 µM

Entry under review: CO[C@H]1CCN(Cc2ccc(N/C=C3\C(=O)NC(=O)c4ccc(-c5ccc(F)cc5)cc43)cc2)C1 . Reported IC50?
> 50 µM

And then CN(C)NC(=O)Cc1ccc(N/C=C2\C(=O)NC(=O)c3ccc(Br)cc32)cc1 , what is it?
> 50 µM

And then Cc1ccc(C)n1-c1ccc2c(c1)/C(=C/Nc1ccc(N3CCN(C)CC3)cc1)C(=O)NC2=O , what is it?
2.4 µM

And then CN(C)CC1CCCN1c1ccc(N/C=C2\C(=O)NC(=O)c3ccc(I)cc32)cc1F (centres unmarked) , what is it?
> 50 µM

And then CCN(CC)CCCCN/C=C1\C(=O)NC(=O)c2ccc(Br)cc21 , what is it?
> 50 µM

And then O=C1NC(=O)c2ccc(I)cc2/C1=C/Nc1ccc(CN2CCCC2)cc1 , what is it?
10 µM

And then CN1CCC(Oc2ccc(N/C=C3\C(=O)NC(=O)c4ccc(Br)cc43)cc2)C1 (centres unmarked) , what is it?
> 50 µM

====

# Assay Notes: I.V. and P.O. Dosing in Mice
# Assay type: in vivo
# Experimental Setup: mouse, in vivo, iv, 2 mg/kg, dose i.v. 2 mg/kg, read-out: aucinf obs (i.v.)
Assay Metric: AUC(0-inf) (ng·h/mL)

O=C1NC(=O)c2ccc(I)cc2/C1=C/NCc1ccn(-c2ccccc2)c(=O)c1 [Example 517]; 2360
O=C1NC(=O)c2ccc(I)cc2/C1=C/NCc1ccn(-c2ccsc2)c(=O)c1 [Example 539]; 1560

A = O=C1NC(=O)c2ccc(I)cc2/C1=C/NCc1ccn(-c2ccoc2)c(=O)c1 [Example 525]
B = CCCOc1ccc(CN/C=C2\C(=O)NC(=O)c3ccc(I)cc32)cc1O [Example 178]
Between item A and item B , which reported AUC(0-inf) is smaller? Respond with the label that goes with your answer.
B
(B: 999 ng·h/mL, A: 2750 ng·h/mL)

====

Each entry below carries its recorded melting point.

COC(=O)Oc1ccc(CN/C=C2\C(=O)NC(=O)c3ccc(Br)cc32)cc1OC(=O)OC; 239 to 240 °C

Entry under review: O=C1NC(=O)c2ccc(Br)cc2/C1=C/NCc1cc(O)cc(O)c1 . Reported melting point?
318 to 319 °C

And then O=C1NC(=O)c2ccc(-c3ccoc3)cc2/C1=C/Nc1ccc(CN2CCCCC2)cc1 , what is it?
204 to 205 °C

And then O=C1NC(=O)c2ccc(Br)cc2C1=CNCc1cc(=O)c(O)co1 , what is it?
293 to 297 °C (dec.)

And then CCOC(=O)C1(C(=O)OCC)Oc2ccc(CN/C=C3\C(=O)NC(=O)c4ccc(Br)cc43)cc2O1 , what is it?
222 to 223 °C

And then COC[C@H]1CCCN1Cc1ccc(N/C=C2\C(=O)NC(=O)c3ccc(-c4ccc(OC(C)C)cc4)cc32)cc1 , what is it?
200 to 201 °C

And then O=C1NC(=O)c2ccc(N3CCOCC3)cc2/C1=C/Nc1ccc(CN2CCCCC2)cc1 , what is it?
216 to 217 °C

And then Nc1ccc(CN/C=C2\C(=O)NC(=O)c3ccc(-c4ccc(F)cc4)cc32)cc1O , what is it?
227 to 228 °C

And then CN1CCN(c2ccc(N/C=C3\C(=O)NC(=O)c4ccc(C(=O)O)cc43)cc2)CC1 , what is it?
278 to 280 °C

And then CCCOc1ccc(CN/C=C2\C(=O)NC(=O)c3ccc(Br)cc32)cc1OC(=O)CC , what is it?
206 to 207 °C

And then O=C1NC(=O)c2ccc(Br)cc2/C1=C/NCc1cccnc1 , what is it?
299 to 300 °C

And then CN1CCN(c2ccc(N/C=C3\C(=O)NC(=O)c4ccc(-c5ccoc5)cc43)cn2)CC1 , what is it?
200 to 201 °C

And then CC(=O)Oc1ccc(CN/C=C2\C(=O)NC(=O)c3ccccc32)cc1OC(C)=O , what is it?
184 to 186 °C

And then CC1CN(c2ccc(N/C=C3\C(=O)NC(=O)c4ccc([N+](=O)[O-])cc43)cc2)CC(C)N1 (centres unmarked) , what is it?
> 300 °C

And then Cc1ccc(C)n1-c1ccc2c(c1)/C(=C/Nc1ccc(N3CCN(C)CC3)cc1)C(=O)NC2=O , what is it?
264 to 265 °C

And then C[C@@H]1CN(c2c(F)cc(N/C=C3\C(=O)NC(=O)c4ccc(Br)cc43)cc2F)C[C@H](C)N1 , what is it?
187 to 188 °C

And then O=C1NC(=O)c2ccccc2/C1=C\c1ccc(O)cc1 , what is it?
242 to 243 °C

And then O=C1NC(=O)c2ccc(Br)cc2/C1=C/N1CCN(CCN2CCOCC2)CC1 , what is it?
156 to 156.5 °C

And then CN1CCN(c2ccc(N/C=C3\C(=O)NC(=O)c4ccc(I)cc43)cc2F)CC1 , what is it?
211 to 212 °C

And then O=C1NC(=O)c2ccc(-c3ccc(O)cc3)cc2/C1=C/Nc1ccc(CN2CCCCC2)cc1 , what is it?
244 to 245 °C

And then CC(C)Oc1ccc(CN/C=C2\C(=O)NC(=O)c3ccc(Br)cc32)cc1O , what is it?
212 to 213 °C

And then CC1CCCN1Cc1ccc(N/C=C2\C(=O)NC(=O)c3ccc(-c4ccoc4)cc32)cc1 (centres unmarked) , what is it?
165 to 166 °C

And then COc1cc(CN/C=C2\C(=O)NC(=O)c3ccc(-c4ccc(Oc5ccccc5)cc4)cc32)cc(O)c1OC , what is it?
240 to 241 °C

And then CC(C)(C)c1ccc2c(c1)/C(=C/NCc1cc(O)c(-c3ccoc3)cn1)C(=O)NC2=O , what is it?
215 to 230 °C (dec.)

And then CCC(=O)Nc1cnc(CN/C=C2\C(=O)NC(=O)c3ccc(I)cc32)cc1O , what is it?
210 to 218 °C (dec.)

And then Nc1ccc(CN/C=C2\C(=O)NC(=O)c3ccc(I)cc32)cc1O , what is it?
250 to 251 °C
